Data origin, for the record: patent US9550811B2

Test system: human PBMCs
Format: cell-based
condition.notes: With Cytofix/Cytoperm and trypsination; BC20; concentration 208 μM
observation.type: Geomean value (peptide-fluorescence)
# respond with the number and nothing more

Use the examples below as a reference point.
- GGGYIPLVGAPLGGGVARALAHGVRV [SP15]: 848
- RRGPVVHLTLRRRGQAGDDFS [SP18]: 1971

Geomean value (peptide-fluorescence) recorded for this sequence, RRGYIPLVGAPLGLRRVARALAHGVRV [SP17] , is 12244

get_value(item= RRGPVVHLTLRRRGQAGDDFS [SP19] , readout=Geomean value (peptide-fluorescence)) returns 3466

---

Test system: HLA-B8
method.summary: REVEAL binding assay
condition.notes: score as percentage of the signal generated by the positive control peptide
Where no end group is shown, it is not given here. [ ]: non-standard residue; d: D form. Cit = NC(=O)NCCC[C@H](N)C(=O)O; Nle = CCCC[C@H](N)C(=O)O
observation.type: REVEAL binding score, HLA-type B8 (%)
Write down the numeric answer in % and omit the unit.

* NLPGCSFSI | 9.89
* TGNIPGSTY | 10.25
* GQIIGGNYL | 11.90
* [Cit]IGVRAT[Cit]R | 12.09
* LMGYIPLVG | 20.75
* IVGGVYLLP | 11.48

Sample "GPRLGVRAT" , system: HLA-B8. Its REVEAL binding score, HLA-type B8 is 13.18

Sample "YLPAVGAPI" , system: HLA-B8. Its REVEAL binding score, HLA-type B8 is 17.92

// returns REVEAL binding score, HLA-type B8 for "GP[Cit]IGVRAT" with HLA-B8; value = 9.99

Measured REVEAL binding score, HLA-type B8 for this entry "PRLGVRATR" on HLA-B8: 11.46

The value of REVEAL binding score, HLA-type B8 recorded for "YVTGNIPGS" when tested on HLA-B8 reads 12.40

I looked up "IRNLGRVIE" and its REVEAL binding score, HLA-type B8 for HLA-B8 was 9.10

REVEAL binding score, HLA-type B8 value, target or system HLA-B8, for "LGRVIETLT" : 14.74

# lookup: "RALAHGVRV" on HLA-B8, REVEAL binding score, HLA-type B8 = 18.08

// assay HLA-B8, entry "DLMGYIPLV" , REVEAL binding score, HLA-type B8 value = 22.65

Given the substance "TGNLPGCSF" and test system HLA-B8, the measured REVEAL binding score, HLA-type B8 is 8.62

Reading of REVEAL binding score, HLA-type B8 for "ITFSIYLIV" with HLA-B8: 11.38

Simply: "SRNLGKVID" , HLA-B8, REVEAL binding score, HLA-type B8 = 16.71

Lab note: substance "RLGVRATRK" tested on HLA-B8; recorded REVEAL binding score, HLA-type B8 was 10.21

Param item: "GQIVGGVYL" ; param system: HLA-B8; output REVEAL binding score, HLA-type B8: 14.53

Response field REVEAL binding score, HLA-type B8 (HLA-B8) for item "NYATGNLPG" : 9.96

Record "L[Nle]GYIPLIG" has HLA-B8 REVEAL binding score, HLA-type B8 equal to 17.29

I looked up "GNLPGCSFS" and its REVEAL binding score, HLA-type B8 for HLA-B8 was 8.71

Note to self: REVEAL binding score, HLA-type B8 of "ARALAHGVR" with HLA-B8 was 18.91

Param item: "GYLPAVGAP" ; param system: HLA-B8; output REVEAL binding score, HLA-type B8: 17.38

Simply: "[Nle]GYIPLIGA" , HLA-B8, REVEAL binding score, HLA-type B8 = 21.35

Record "RNLGKVIDT" has HLA-B8 REVEAL binding score, HLA-type B8 equal to 13.80

HLA-B8 assay, substance "IPLVGAPLG" , recorded REVEAL binding score, HLA-type B8 = 17.87

---

Test system: HLA-B8
method.summary: REVEAL binding assay
condition.notes: score as percentage of the signal generated by the positive control peptide
Readings of REVEAL binding score, HLA-type B8 for the listed substances
Respond with the bare value in %.

- VGGVYLLPR: 11.57
- VARALAHGV: 14.31
- QIIGGNYLI: 10.61

In the following, a different substance is considered.
Item: "RVIAHGLRL" | REVEAL binding score, HLA-type B8: 12.60

---

Entries annotated with measured REVEAL binding score, HLA-type A29
Test system: HLA-A29
method.summary: REVEAL binding assay
condition.notes: score as percentage of the signal generated by the positive control peptide
Where no end group is shown, it is not given here. [ ]: non-standard residue; d: D form. Cit = NC(=O)NCCC[C@H](N)C(=O)O
A bare number is not enough; add the unit after it.

In the examples that follow, each entry is paired with its recorded REVEAL binding score, HLA-type A29.
• SRNLGKVID = 9.94%
• LMGYIPLVG = 24.26%
• VIRVIAHGL = 27.12%
• IRVIAHGLR = 23.19%
• [Cit]IGVRAT[Cit]R = 16.67%

The substance "NLGRVIETL" showed REVEAL binding score, HLA-type A29 equal to 16.44%

Consider "LGKVIDTLT" . Its measured REVEAL binding score, HLA-type A29 is 15.99%

Recorded REVEAL binding score, HLA-type A29 (substance "TGNIPGSTY" ): 35.10%

According to the records, this substance "GYIPLVGAP" displays REVEAL binding score, HLA-type A29 of 29.74%

Looking up "YIPLVGAPL" , I found its REVEAL binding score, HLA-type A29 recorded as 31.09%

For reference, reported REVEAL binding score, HLA-type A29 for "GGQIIGGNY" stands at 14.38%

Lookup result for "RLGVRATRK" ; measured REVEAL binding score, HLA-type A29: 12.83%

---

Tested on: HLA-B15
method.summary: REVEAL binding assay
condition.notes: score as percentage of the signal generated by the positive control peptide
Where no end group is shown, it is not given here. [ ]: non-standard residue; d: D form. Cit = NC(=O)NCCC[C@H](N)C(=O)O
Classify by measured REVEAL binding score, HLA-type B15: true if it is equal to or exceeds 8%, false if it is smaller.

Item "GNLPGCSFS" with REVEAL binding score, HLA-type B15 of 8% or above? false

Evaluate "NLGKVIDTL" : REVEAL binding score, HLA-type B15 at minimum 8%? true

Does the reported REVEAL binding score, HLA-type B15 for "GKVIDTLTC" fall at or above the 8% mark? false

For this substance, is measured REVEAL binding score, HLA-type B15 8% or higher? "GQIVGGVYL" true

Entry "GP[Cit]IGVRAT" : is its REVEAL binding score, HLA-type B15 no less than 8%? false

---

// values below are reported REVEAL binding score, HLA-type A1
Test system: HLA-A1
method.summary: REVEAL binding assay
condition.notes: score as percentage of the signal generated by the positive control peptide
Where no end group is shown, it is not given here. [ ]: non-standard residue; d: D form. Cit = NC(=O)NCCC[C@H](N)C(=O)O
Write the answer as a number in %, unit excluded.

* NIPGSTYSL | 8.41
* RNLGRVIET | 15.93
* [Cit]IGVRAT[Cit]R | 19.68

Documented REVEAL binding score, HLA-type A1 of "GPRLGVRAT" : 13.85

For record "VIETLTSGF" the listed REVEAL binding score, HLA-type A1 is 14.61

Field REVEAL binding score, HLA-type A1 (entry "PRLGVRATR" ) reads 17.77

What the record says about "P[Cit]IGVRAT[Cit]" : REVEAL binding score, HLA-type A1 is 18.83

Briefly, REVEAL binding score, HLA-type A1 measured for "DLMGYIPLV" : 16.67

Lookup result for "YIPLVGAPL" ; measured REVEAL binding score, HLA-type A1: 21.80

Measured REVEAL binding score, HLA-type A1, "LPAVGAPIG" : 20.57

Lookup result for "VIDTLTCGF" ; measured REVEAL binding score, HLA-type A1: 25.85

---

Tested on: HLA-B35
method.summary: REVEAL binding assay
condition.notes: score as percentage of the signal generated by the positive control peptide
Label fulfilled when REVEAL binding score, HLA-type B35 >= 2%; otherwise not fulfilled.

• GQIIGGNYL = fulfilled
• MGYIPLVGA = not fulfilled

Below: the item to evaluate.
# check: REVEAL binding score, HLA-type B35 of "RALAHGVRV" is greater than or equal to 2% fulfilled
